Experiment: physchem
Conditions: water
Text: The exact method for determining this is described hereinafter.
measurement-name: solubility at 0.5 h (mg/mL)

compound	reading-unit	recorded-result
O=C(O)CC(O)C(=O)O (stereo not shown) [calcium malate]	mg/mL	660

Ref: patent EP0533724B1
